Tested on: HOP-92
Assay overview: NCI tumour cell line growth inhibition, 48 h
The source made the active and inactive calls. Cut-off read from the data, not from the text of the source: active = GI50 up to about 1.1 µM and inactive = higher.
Parameter: GI50

CN(C)CCS/C(=N\c1ccccc1)N1CCCCC1 ... 13.7 µM (inactive)
CCCCN(CCCC)C1(c2cc3ccccc3s2)CCCCC1.[O-][Cl+3]([O-])([O-])O ... 12.5 µM (inactive)
CCOC(=N)CC(=O)Nc1ccccc1 ... > 10 µM (inactive)

// moving on: another record for GI50
Query string: Fill in: GI50 of Cc1cn(C2C=CC(=O)C(C)O2)c(=O)[nH]c1=O (centres undefined) is ___
Result string: 15.9 µM (inactive)
